# Test system: SNB-19
# Assay method text: NCI tumour cell line growth inhibition, 48 h
Activity calls are given as the source filed them. No stated cut-off is given here; in the data, active = GI50 up to about 1.1 µM and inactive = higher.
Tick one outcome: YES = active, NO = inactive

Past entries and their recorded results:
>  <Molecule>
N#Cc1c(-c2ccccc2)c(CN2CCCCC2)c(=O)n2c1[nH]c1ccccc12

>  <Label class>
NO

$$$$
>  <Molecule>
Cc1[nH]c2ccccc2c1C1=NO/C(=N\O)C(c2c(C)[nH]c3ccccc23)C1 (configuration not stated)

>  <Label class>
NO

$$$$
>  <Molecule>
c1ccc(-c2cc(-c3cc(-c4ccccc4)n(-c4ccccc4)n3)nn2-c2ccccc2)cc1

>  <Label class>
NO

$$$$
>  <Molecule>
CNC(=O)c1cccc2c(Nc3ccc(NS(C)(=O)=O)cc3OC)c3cccc(C)c3nc12

>  <Label class>
YES

$$$$
>  <Molecule>
CC(C)=CCc1c2c(c3occ(-c4ccc(O)cc4)c(=O)c3c1O)CC(C(C)(C)O)O2 (configuration not stated) [SENEGALENSIN]

>  <Label class>
NO

$$$$

Would you mind telling me which call this test gave `COc1cccc(/C=C(/C(=O)O)c2cc(OC)c(OC)c(OC)c2)c1` ?
NO

Would you mind telling me which call this test gave `Cn1cc(S(=O)(=O)NC(=O)Nc2ccc(Cl)cc2)c(=O)c2ccc(F)cc21` ?
NO
